Where do these numbers come from? They come from ChEMBL document CHEMBL3621049.

- Tested on: NCI-H322M
- ASSAY_PROTOCOL: Growth inhibition of human NCI-H322M cells at 10 uM by sulforhodamine B assay
- Format: functional, cell-based
Active and inactive are the calls of the source. No cut-off for these calls is given here.
MEASURE: growth inhibition (GI)

{"CHEM_SMILES": "COc1ccc(-c2nc(-c3ccccc3)c(-c3ccccc3)n2C2CC2)cc1OC1CCCC1", "SYSTEM_NAME": "NCI-H322M", "RESULT": "Active"}
{"CHEM_SMILES": "COc1cc(-c2nc(-c3ccccc3)c(-c3ccccc3)n2C2CCCCC2)ccc1OC1CCCC1", "SYSTEM_NAME": "NCI-H322M", "RESULT": "Active"}
{"CHEM_SMILES": "COc1ccc(-c2nc(-c3ccccc3)c(-c3ccccc3)[nH]2)cc1OC1CCCC1", "SYSTEM_NAME": "NCI-H322M", "RESULT": "Active"}
{"CHEM_SMILES": "COc1ccc(-c2nc(-c3ccccc3)c(-c3ccccc3)n2C2CC2)cc1OC1CCCCC1", "SYSTEM_NAME": "NCI-H322M", "RESULT": "Active"}
{"CHEM_SMILES": "C#CCn1c(-c2ccc(OC)c(OC3CCCC3)c2)nc(-c2ccccc2)c1-c1ccccc1", "SYSTEM_NAME": "NCI-H322M", "RESULT": "Active"}

----------
- Test system: SK-OV-3
- ASSAY_PROTOCOL: Growth inhibition of human SKOV3 cells at 10 uM by sulforhodamine B assay
- Format: functional, cell-based
Activity calls are given as the source filed them. The rule behind the calls is not given here.

{"CHEM_SMILES": "COc1ccc(-c2nc(-c3ccccc3)c(-c3ccccc3)n2C2CC2)cc1OC1CCCC1", "SYSTEM_NAME": "SK-OV-3", "growth inhibition (GI)": "Active"}
{"CHEM_SMILES": "COc1ccc(-c2nc(-c3ccccc3)c(-c3ccccc3)n2C2CC2)cc1OC1CCCCC1", "SYSTEM_NAME": "SK-OV-3", "growth inhibition (GI)": "Active"}
{"CHEM_SMILES": "COc1ccc(-c2nc(-c3ccccc3)c(-c3ccccc3)[nH]2)cc1OC1CCCC1", "SYSTEM_NAME": "SK-OV-3", "growth inhibition (GI)": "Active"}
{"CHEM_SMILES": "COc1cc(-c2nc(-c3ccccc3)c(-c3ccccc3)n2Cc2ccccc2)ccc1OC1CCCCC1", "SYSTEM_NAME": "SK-OV-3", "growth inhibition (GI)": "Active"}
{"CHEM_SMILES": "CCCCCCn1c(-c2ccc(OC)c(OC3CCCC3)c2)nc(-c2ccccc2)c1-c1ccccc1", "SYSTEM_NAME": "SK-OV-3", "growth inhibition (GI)": "Active"}
{"CHEM_SMILES": "C#CCn1c(-c2ccc(OC3CCCC3)c(OC)c2)nc(-c2ccccc2)c1-c1ccccc1", "SYSTEM_NAME": "SK-OV-3", "growth inhibition (GI)": "Active"}
{"CHEM_SMILES": "COc1cc(-c2nc(-c3ccccc3)c(-c3ccccc3)n2C2CCCCC2)ccc1OC1CCCC1", "SYSTEM_NAME": "SK-OV-3", "growth inhibition (GI)": "Active"}
{"CHEM_SMILES": "COc1ccc(-c2nc(-c3ccccn3)c(-c3ccccn3)n2CC(C)C)cc1OC1CCCC1", "SYSTEM_NAME": "SK-OV-3", "growth inhibition (GI)": "Active"}
{"CHEM_SMILES": "C#CCn1c(-c2ccc(OC)c(OC3CCCC3)c2)nc(-c2ccccc2)c1-c1ccccc1", "SYSTEM_NAME": "SK-OV-3", "growth inhibition (GI)": "Active"}
{"CHEM_SMILES": "COc1cc(-c2nc(-c3ccccc3)c(-c3ccccc3)[nH]2)ccc1OC1CCCC1", "SYSTEM_NAME": "SK-OV-3", "growth inhibition (GI)": "Active"}
